B1: CPEB3 Ribozyme (parent)
chain: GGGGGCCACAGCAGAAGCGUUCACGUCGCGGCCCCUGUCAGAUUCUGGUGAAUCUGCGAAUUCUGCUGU

- Variants of: B1
- method: self-cleavage, relative activity (ratio to wild type); higher = more cleavage; co-transcriptional
reportedProperty: self-cleavage
One number for each entry.

INSERT INTO measurements (mutantname, reportedproperty, experimentalresult) VALUES
  ('G4A C18G', 'self-cleavage', 0.158),
  ('C33G U43G', 'self-cleavage', 0.377),
  ('G4C C6G', 'self-cleavage', 0.0309),
  ('C7G U69G', 'self-cleavage', 0.779),
  ('C32U C66A', 'self-cleavage', 0.893);

Consider the following items and state reported self-cleavage for each.
1. G4C G37U
2. U44G U46A
3. G11U G50U

-- reply
0.0878
0.978
0.916

Hello, I would appreciate it if you could give self-cleavage for each entry below.
1. A52U U53C
2. C35A C63A
3. G37U U67A
4. C33A G58C
5. A13C G37A
6. G19A C63G

-- reply
0.879
0.276
0.293
0.837
0.14
0.152

Record self-cleavage for all entries; do not skip any.
1. C35G C63A
2. G3C A59G
3. A13C U26C
4. U21A G30U
5. G30U C33U
6. A52U G58U
7. C6A U20A

-- reply
1. 0.341
2. 0.0736
3. 0.692
4. 0.343
5. 0.295
6. 0.992
7. 0.0587
